experiment: Solubility in water (excess solid, UPLC-UV)
Format: physicochemical
measurement-context: thermodynamic from solid, room temperature
Excerpt: Suspensions were filtered.
readout: solubility (µg/mL)

- CS(=O)(=O)c1cncc(C(=O)N2[C@@H](C(=O)N[C@@H](c3cc(F)c(Cl)cc3F)C3CC3)C[C@H]3C[C@H]32)c1 [Form I]: 9
